- targetOrTestSystem: UniProt P51639
- Sequence (P51639 whole entry): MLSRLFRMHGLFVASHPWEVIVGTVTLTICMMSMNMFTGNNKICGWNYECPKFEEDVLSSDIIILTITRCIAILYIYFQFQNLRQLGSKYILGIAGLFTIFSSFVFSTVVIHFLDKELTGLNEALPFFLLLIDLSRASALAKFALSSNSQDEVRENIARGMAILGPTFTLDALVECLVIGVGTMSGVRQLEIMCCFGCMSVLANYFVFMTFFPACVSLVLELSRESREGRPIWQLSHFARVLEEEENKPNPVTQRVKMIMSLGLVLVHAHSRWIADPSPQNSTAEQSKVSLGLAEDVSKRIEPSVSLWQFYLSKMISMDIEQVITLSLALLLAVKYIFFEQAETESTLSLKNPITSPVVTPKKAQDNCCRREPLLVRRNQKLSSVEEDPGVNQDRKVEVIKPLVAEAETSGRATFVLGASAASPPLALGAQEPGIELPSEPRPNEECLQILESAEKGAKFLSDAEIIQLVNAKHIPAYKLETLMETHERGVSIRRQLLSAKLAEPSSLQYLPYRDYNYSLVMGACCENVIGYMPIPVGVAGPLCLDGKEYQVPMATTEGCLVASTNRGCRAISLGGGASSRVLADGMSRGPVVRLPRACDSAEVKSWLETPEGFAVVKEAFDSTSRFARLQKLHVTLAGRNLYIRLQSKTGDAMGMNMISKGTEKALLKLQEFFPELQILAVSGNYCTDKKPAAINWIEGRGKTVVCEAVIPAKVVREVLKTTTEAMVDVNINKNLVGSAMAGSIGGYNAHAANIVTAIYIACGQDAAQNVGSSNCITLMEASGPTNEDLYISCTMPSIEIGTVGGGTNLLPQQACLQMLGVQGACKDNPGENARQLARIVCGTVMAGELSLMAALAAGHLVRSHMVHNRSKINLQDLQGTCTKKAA
- assayInfo: Inhibitory activity against partially purified rat liver HMG-CoA reductase in vitro; 2.1-54
measuredProperty: IC50 (µM)
Reply with just the number (in µM).

Query `O=C(O)C[C@H](O)C[C@H](O)/C=C/c1c2c(nn1-c1ccc(F)cc1)CCC2` yields IC50 of 11

----------
- targetOrTestSystem: 3-hydroxy-3-methylglutaryl-coenzyme A reductase (Rattus norvegicus, UniProt P51639)
- assayInfo: Inhibitory activity against partially purified rat liver HMG-CoA reductase in vitro; 0.07-0.27
measuredProperty: IC50 (µM)
Reply with just the number (in µM).

// IC50 (3-hydroxy-3-methylglutaryl-coenzyme A reductase (Rattus norvegicus, UniProt P51639)) for O=C(O)C[C@H](O)C[C@H](O)/C=C/c1c2c(nn1-c1ccc(F)cc1)C(Cc1ccc(Cl)cc1)CCC2 (stereo partly specified) = 0.14

----------
- targetOrTestSystem: 3-hydroxy-3-methylglutaryl-coenzyme A reductase (Rattus norvegicus, UniProt P51639)
- Sequence (P51639 whole entry): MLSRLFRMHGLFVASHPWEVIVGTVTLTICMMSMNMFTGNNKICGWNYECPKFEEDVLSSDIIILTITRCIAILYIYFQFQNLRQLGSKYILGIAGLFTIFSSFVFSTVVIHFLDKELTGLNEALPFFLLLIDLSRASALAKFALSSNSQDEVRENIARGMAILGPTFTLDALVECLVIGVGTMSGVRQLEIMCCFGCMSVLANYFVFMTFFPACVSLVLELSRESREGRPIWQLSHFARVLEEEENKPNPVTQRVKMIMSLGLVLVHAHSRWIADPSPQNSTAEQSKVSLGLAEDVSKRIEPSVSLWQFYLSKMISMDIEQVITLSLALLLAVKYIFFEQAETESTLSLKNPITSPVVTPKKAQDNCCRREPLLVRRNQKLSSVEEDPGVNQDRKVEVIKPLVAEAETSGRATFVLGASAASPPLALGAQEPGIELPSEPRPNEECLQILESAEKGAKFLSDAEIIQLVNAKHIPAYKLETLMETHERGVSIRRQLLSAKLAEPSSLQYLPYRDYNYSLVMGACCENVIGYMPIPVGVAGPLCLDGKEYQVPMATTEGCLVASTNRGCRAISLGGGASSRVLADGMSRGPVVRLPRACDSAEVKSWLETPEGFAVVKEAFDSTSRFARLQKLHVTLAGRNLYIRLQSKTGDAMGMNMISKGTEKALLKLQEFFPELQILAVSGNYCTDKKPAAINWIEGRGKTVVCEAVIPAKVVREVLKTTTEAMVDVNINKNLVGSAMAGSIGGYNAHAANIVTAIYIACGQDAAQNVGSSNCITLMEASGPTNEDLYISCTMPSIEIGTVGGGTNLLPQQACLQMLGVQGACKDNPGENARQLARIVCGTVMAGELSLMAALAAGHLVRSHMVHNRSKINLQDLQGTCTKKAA
- assayInfo: Inhibitory activity against partially purified rat liver HMG-CoA reductase in vitro; 0.16-0.24
measuredProperty: IC50 (nM)
Reply with just the number (in nM).

// IC50 (3-hydroxy-3-methylglutaryl-coenzyme A reductase (Rattus norvegicus, UniProt P51639)) for O=C(O)C[C@H](O)C[C@H](O)/C=C/c1c2c(nn1-c1ccc(F)cc1)C(Cc1ccc(F)cc1)CCC2 (stereo partly specified) = 200

----------
- System: HepG2
- assayInfo: Tested for ability to inhibit incorporation of [14C]acetate into cholesterol in cultured human hepatoma (HEP-G2) cells; 0.046-0.17
- Type: functional, cell-based
measuredProperty: pIC50
pIC50 is defined as minus the log10 of a concentration measured in mol/L.

Query CC(C)(C)c1ccc(CC2CCCc3c2nn(-c2ccc(F)cc2)c3/C=C/[C@@H](O)C[C@@H](O)CC(=O)O)cc1 (stereo partly specified) yields pIC50 of 7.06

----------
- targetOrTestSystem: 3-hydroxy-3-methylglutaryl-coenzyme A reductase (Rattus norvegicus)
- Sequence (P51639 whole entry): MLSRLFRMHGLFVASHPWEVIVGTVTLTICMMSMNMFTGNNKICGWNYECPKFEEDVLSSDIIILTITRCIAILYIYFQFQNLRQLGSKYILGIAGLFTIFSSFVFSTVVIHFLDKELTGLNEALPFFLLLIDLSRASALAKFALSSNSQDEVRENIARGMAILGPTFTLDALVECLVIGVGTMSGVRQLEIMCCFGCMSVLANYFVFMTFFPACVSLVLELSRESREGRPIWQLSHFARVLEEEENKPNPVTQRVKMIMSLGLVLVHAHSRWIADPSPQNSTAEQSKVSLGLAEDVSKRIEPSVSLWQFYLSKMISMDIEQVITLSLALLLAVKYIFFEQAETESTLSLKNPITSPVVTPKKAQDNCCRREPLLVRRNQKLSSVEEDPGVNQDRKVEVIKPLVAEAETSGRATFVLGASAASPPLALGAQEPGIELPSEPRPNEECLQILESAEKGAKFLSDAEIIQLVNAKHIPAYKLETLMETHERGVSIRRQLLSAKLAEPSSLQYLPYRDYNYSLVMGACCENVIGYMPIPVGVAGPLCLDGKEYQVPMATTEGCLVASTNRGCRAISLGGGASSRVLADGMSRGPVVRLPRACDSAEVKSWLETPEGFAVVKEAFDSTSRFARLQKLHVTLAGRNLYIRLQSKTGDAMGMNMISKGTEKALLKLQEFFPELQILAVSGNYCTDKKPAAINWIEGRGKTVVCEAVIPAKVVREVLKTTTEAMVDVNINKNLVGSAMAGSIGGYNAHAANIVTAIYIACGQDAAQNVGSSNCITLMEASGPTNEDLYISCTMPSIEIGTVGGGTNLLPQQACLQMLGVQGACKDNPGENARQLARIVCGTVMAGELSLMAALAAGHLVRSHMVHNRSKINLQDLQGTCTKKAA
- assayInfo: Inhibitory activity against partially purified rat liver HMG-CoA reductase in vitro; 3.8-19
measuredProperty: IC50 (µM)
Reply with just the number (in µM).

Query O=C(O)C[C@H](O)C[C@H](O)/C=C/c1c2c(nn1-c1ccc(F)cc1)C(C1CCCCC1)CCC2 (stereo partly specified) yields IC50 of 8.5

----------
- targetOrTestSystem: 3-hydroxy-3-methylglutaryl-coenzyme A reductase (Rattus norvegicus, UniProt P51639)
- assayInfo: Inhibitory activity against partially purified rat liver HMG-CoA reductase in vitro; 0.23-0.71
measuredProperty: pIC50
pIC50 is defined as minus the log10 of a concentration measured in mol/L.

Query CC[C@H](C)C(=O)O[C@H]1C[C@@H](C)C=C2C=C[C@H](C)[C@H](CC[C@@H]3C[C@@H](O)CC(=O)O3)[C@H]21 [LOVASTATIN] yields pIC50 of 6.40

----------
- targetOrTestSystem: 3-hydroxy-3-methylglutaryl-coenzyme A reductase (Rattus norvegicus, UniProt P51639)
- Sequence (P51639 whole entry): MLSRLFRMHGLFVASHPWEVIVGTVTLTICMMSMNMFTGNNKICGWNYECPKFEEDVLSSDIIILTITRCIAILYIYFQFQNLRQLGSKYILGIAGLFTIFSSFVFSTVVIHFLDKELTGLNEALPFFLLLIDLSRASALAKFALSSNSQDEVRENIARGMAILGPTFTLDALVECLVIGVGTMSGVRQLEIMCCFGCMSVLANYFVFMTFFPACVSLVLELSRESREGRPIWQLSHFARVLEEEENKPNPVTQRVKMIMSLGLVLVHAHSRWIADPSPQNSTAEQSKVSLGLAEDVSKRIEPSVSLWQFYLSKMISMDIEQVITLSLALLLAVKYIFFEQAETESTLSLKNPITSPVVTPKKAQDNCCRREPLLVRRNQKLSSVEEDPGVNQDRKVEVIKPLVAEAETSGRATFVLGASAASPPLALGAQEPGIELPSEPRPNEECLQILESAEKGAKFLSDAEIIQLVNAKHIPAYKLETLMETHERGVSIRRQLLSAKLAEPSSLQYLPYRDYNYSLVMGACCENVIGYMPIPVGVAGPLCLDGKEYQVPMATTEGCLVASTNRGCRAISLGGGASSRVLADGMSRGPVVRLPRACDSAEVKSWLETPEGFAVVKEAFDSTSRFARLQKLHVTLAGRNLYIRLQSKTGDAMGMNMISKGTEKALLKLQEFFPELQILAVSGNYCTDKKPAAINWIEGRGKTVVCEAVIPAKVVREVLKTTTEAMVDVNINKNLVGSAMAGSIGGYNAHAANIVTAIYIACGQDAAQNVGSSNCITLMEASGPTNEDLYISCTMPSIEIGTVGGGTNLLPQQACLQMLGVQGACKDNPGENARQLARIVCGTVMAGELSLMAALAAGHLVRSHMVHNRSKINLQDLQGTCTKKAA
- assayInfo: Inhibitory activity against partially purified rat liver HMG-CoA reductase in vitro; 0.027-0.046
measuredProperty: IC50 (nM)
Reply with just the number (in nM).

Query COc1cccc(CC2CCCc3c2nn(-c2ccc(F)cc2)c3/C=C/[C@@H](O)C[C@@H](O)CC(=O)O)c1 (stereo partly specified) yields IC50 of 35
